experiment: growth inhibition of non-replicating M. tuberculosis (AID 488890); settings: Mycobacterium tuberculosis non-replicating, at 25 µM, stronger effect = higher value;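 also: plate controls were DMSO cells for no effect and high antibiotic wells for full effect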
The whole screen tested about 320,000 compounds, of which about 1,300 (0.41%) were called active. Not shown: some 3% with an inconclusive outcome. These entries were drawn from the full list. Results with a measured potency or affinity are listed apart.
Item-by-item account of inhibition

compound: O=S(=O)(Nc1ccc(Nc2ccccc2)cc1)c1ccc(F)cc1
inhibition (%): 45.8
//
compound: Cc1cc(OCC(=O)Nc2ncn[nH]2)ccc1Cl
inhibition (%): 30.6
//
compound: CCCCn1c(N)c(N(CCOC)C(=O)COc2ccc(C(C)=O)cc2)c(=O)[nH]c1=O
inhibition (%): -6.71
//
compound: O=C(N/N=C/c1ccc(-c2ccccc2[N+](=O)[O-])o1)c1cncc(Br)c1
inhibition (%): 11.6
//
compound: Cc1ccc(C(=O)N/N=C\c2ccc([N+](=O)[O-])o2)cn1
inhibition (%): 70.4
//
compound: O=C(N/N=C/c1ccccc1[N+](=O)[O-])c1ccncc1
inhibition (%): 35.4
//
compound: Cc1ccc(/C=N\NC(=O)c2cncc(Br)c2)o1
inhibition (%): 46.2
//
compound: O=C(N/N=C/c1ccc(O)c([N+](=O)[O-])c1)c1ccncc1
inhibition (%): 56.1
//
compound: CC(=O)Cn1c2ccccc2n2nc(CCC(=O)O)c(=O)nc12
inhibition (%): -25.9
//
compound: CSCCC(NC(=O)COc1ccccc1)C(=O)N(C)Cc1cccc(F)c1 (stereo unspecified)
inhibition (%): 23.5
//
compound: Cc1ccc(C(=O)N/N=C\c2sccc2C)cn1
inhibition (%): -5.99

Where do these numbers come from? They come from PubChem BioAssay AID488890.
